Values of pKi reported for Proto-oncogene tyrosine-protein kinase Src (Homo sapiens) appear below.
API: returns pKi as number; meaning -log10 of concentration in mol/L.

Cc1cccc(Cl)c1NC(=O)c1ccc2nc(Nc3cccc(NCCO)n3)sc2c1    7.89

Let's switch to this compound now.
Write down pKi measured for item `Cc1cc(Nc2nc3ccc(C(=O)Nc4c(C)cccc4Cl)cc3s2)nc(NCCO)n1`
8.00

====

target: Tyrosine-protein kinase Lck (Homo sapiens, UniProt P06239); experiment: Inhibition of human p56 Lck tyrosine kinase
Sequence (P06239 whole entry): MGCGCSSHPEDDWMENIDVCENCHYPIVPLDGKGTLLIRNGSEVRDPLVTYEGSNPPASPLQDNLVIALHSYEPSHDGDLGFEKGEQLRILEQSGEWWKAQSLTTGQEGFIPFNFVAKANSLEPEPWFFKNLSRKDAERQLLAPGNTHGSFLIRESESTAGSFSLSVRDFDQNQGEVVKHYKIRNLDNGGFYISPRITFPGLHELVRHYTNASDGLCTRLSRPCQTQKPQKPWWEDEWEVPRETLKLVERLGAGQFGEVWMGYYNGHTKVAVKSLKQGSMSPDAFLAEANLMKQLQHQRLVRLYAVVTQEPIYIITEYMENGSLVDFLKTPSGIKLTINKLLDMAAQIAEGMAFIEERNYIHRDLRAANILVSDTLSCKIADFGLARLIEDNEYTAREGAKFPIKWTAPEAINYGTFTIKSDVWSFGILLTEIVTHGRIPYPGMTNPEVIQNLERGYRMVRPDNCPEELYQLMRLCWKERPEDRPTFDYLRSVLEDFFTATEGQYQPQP
Listed here are compounds together with their documented log10 IC50.
Recorded IC50 (log10, µM)

CCc1cc(Nc2nc3ccc(C(=O)Nc4c(C)cccc4Cl)cc3s2)ncn1    -2.30
Cc1cc(C)c(NC(=O)c2ccc3nc(Nc4ccncn4)sc3c2)c(C)c1    -0.39

Write down log10 IC50 measured for item Cc1cc(Nc2nc3ccc(C(=O)Nc4c(C)cccc4Cl)cc3s2)nc(NCC2CCCO2)n1 (stereo unspecified)
-3.00

Write down log10 IC50 measured for item `Cc1cc(C)c(NC(=O)c2ccc3nc(Nc4cccc(C)n4)sc3c2)c(C)c1`
-0.74

====

Values of pKi reported for Tyrosine-protein kinase Lck (Homo sapiens) appear below.
API: returns pKi as number; meaning -log10 of concentration in mol/L.

Cc1cccc(Cl)c1NC(=O)c1ccc2nc(Nc3cccc(NCCO)n3)sc2c1    9.05
CNc1cc(Nc2nc3ccc(C(=O)Nc4c(C)cccc4Cl)cc3s2)ncn1    8.18

Let's switch to this compound now.
# lookup: Tyrosine-protein kinase Lck (Homo sapiens) pKi, key = `Cc1cccc(Cl)c1NC(=O)c1ccc2nc(NC(=O)NC(C)(C)C)sc2c1`
8.26

====

Listed here are compounds together with their documented pIC50.
target: Tyrosine-protein kinase Lck (Homo sapiens, UniProt P06239); assay: Inhibition of human p56 Lck tyrosine kinase
API: returns pIC50 as number; meaning -log10 of concentration in mol/L.

Cc1cnc(Nc2nc3ccc(C(=O)Nc4c(C)cc(C)cc4C)cc3s2)c(C)c1    7.77
Cc1cccc(Cl)c1NC(=O)c1ccc2nc(Nc3ccnc(Cl)n3)sc2c1    7.51

Write down pIC50 measured for item `Cc1cc(C)c(NC(=O)c2ccc3nc(Nc4cc(C)nc(C)n4)sc3c2)c(C)c1`
7.28

Write down pIC50 measured for item `CCc1ccnc(Nc2nc3ccc(C(=O)Nc4c(C)cccc4Cl)cc3s2)c1`
8.30

====

target: Tyrosine-protein kinase Lck (Homo sapiens, UniProt P06239); experiment: Inhibition of human p56 Lck tyrosine kinase
Listed here are molecules together with their documented pIC50.
API: returns pIC50 as number; meaning -log10 of concentration in mol/L.

Recorded results for 7 molecules are shown here.
Cc1ccnc(Nc2nc3ccc(C(=O)Nc4c(C)cccc4Cl)cc3s2)c1    7.70
Cc1cc(Nc2nc3ccc(C(=O)Nc4c(C)cccc4Cl)cc3s2)nc(NCCO)n1    8.70
CCc1cc(Nc2nc3ccc(C(=O)Nc4c(C)cc(C)cc4C)cc3s2)ncn1    7.11
COc1cc(Nc2nc3ccc(C(=O)Nc4c(C)cccc4Cl)cc3s2)ncn1    7.89
CNc1cc(Nc2nc3ccc(C(=O)Nc4c(C)cccc4Cl)cc3s2)ncn1    8.70
CC(=O)NCCNc1cccc(Nc2nc3ccc(C(=O)Nc4c(C)cccc4Cl)cc3s2)n1    8.70
Cc1cccc(Cl)c1NC(=O)c1ccc2nc(Nc3cc(NCCO)ncn3)sc2c1    8.10

# lookup: Tyrosine-protein kinase Lck (Homo sapiens, UniProt P06239) pIC50, key = `Cc1cccc(Cl)c1NC(=O)c1ccc2nc(Nc3cc(CN(C)C)ccn3)sc2c1`
8.05

====

Listed here are compounds together with their documented IC50.
target: Tyrosine-protein kinase Lck (Homo sapiens, UniProt P06239); test: Inhibition of human p56 Lck tyrosine kinase
Write the value in nM as a bare number.

Recorded results for 3 compounds are shown here.
Cc1cccc(Cl)c1NC(=O)c1ccc2nc(Nc3ccccn3)sc2c1    84
Cc1cccc(Cl)c1NC(=O)c1ccc2nc(Nc3cccc(CN(C)C)n3)sc2c1    10
Cc1cccc(Cl)c1NC(=O)c1ccc2nc(Nc3cc(CN4CCOCC4)ccn3)sc2c1    1

Write down IC50 measured for item `Cc1cccc(Cl)c1NC(=O)c1ccc2nc(Nc3cnccn3)sc2c1`
15

====

target: Tyrosine-protein kinase Lck (Homo sapiens, UniProt P06239); experiment: Inhibition of p56 Lck tyrosine kinase
reportedEndpoint: IC50 (nM)
Write the value in nM as a bare number.

Write down IC50 measured for item `Cc1cc(Nc2nc3ccc(C(=O)Nc4c(C)cccc4Cl)cc3s2)nc(NCCO)n1`
1.1

====

target: Tyrosine-protein kinase Fyn (Homo sapiens)
Sequence (P06241 whole entry): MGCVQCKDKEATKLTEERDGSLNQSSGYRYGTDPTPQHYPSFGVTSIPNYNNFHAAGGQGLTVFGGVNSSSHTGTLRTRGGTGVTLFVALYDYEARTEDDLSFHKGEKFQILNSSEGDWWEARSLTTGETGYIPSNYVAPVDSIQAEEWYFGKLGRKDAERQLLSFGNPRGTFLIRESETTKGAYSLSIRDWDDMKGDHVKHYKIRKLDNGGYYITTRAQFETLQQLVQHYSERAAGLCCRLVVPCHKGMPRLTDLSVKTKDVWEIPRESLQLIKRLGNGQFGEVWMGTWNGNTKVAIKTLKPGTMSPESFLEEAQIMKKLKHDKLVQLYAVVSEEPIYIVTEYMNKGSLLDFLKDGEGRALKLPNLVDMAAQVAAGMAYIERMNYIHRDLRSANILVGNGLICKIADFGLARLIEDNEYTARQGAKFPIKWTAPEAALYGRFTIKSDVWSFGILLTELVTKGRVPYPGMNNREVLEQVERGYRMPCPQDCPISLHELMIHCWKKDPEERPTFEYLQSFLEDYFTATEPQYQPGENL
reportedEndpoint: Ki

Recorded results for 3 compounds are shown here.
Cc1cc(Nc2nc3ccc(C(=O)Nc4c(C)cccc4Cl)cc3s2)nc(NCC2CCCO2)n1 (centres undefined)    1.1 nM
CNc1cc(Nc2nc3ccc(C(=O)Nc4c(C)cccc4Cl)cc3s2)ncn1    8.8 nM
Cc1cccc(Cl)c1NC(=O)c1ccc2nc(Nc3cccc(NCCO)n3)sc2c1    2.4 nM

Let's switch to this compound now.
Write down Ki measured for item `Cc1cc(Nc2nc3ccc(C(=O)Nc4c(C)cccc4Cl)cc3s2)nc(NCCO)n1`
4 nM

====

target: Tyrosine-protein kinase Lck (Homo sapiens); experiment: Inhibition of human p56 Lck tyrosine kinase
Listed here are molecules together with their documented IC50.
Write the value in nM as a bare number.

Cc1cc(Nc2nc3ccc(C(=O)Nc4c(C)cccc4Cl)cc3s2)nc(CN2CCOCC2)n1    10
Cc1ccc(Nc2nc3ccc(C(=O)Nc4c(C)cc(C)cc4C)cc3s2)nc1    72
Cc1ccnc(Nc2nc3ccc(C(=O)Nc4c(C)cc(C)cc4C)cc3s2)c1    32
Cc1cccc(Cl)c1NC(=O)c1ccc2nc(Nc3ccn[nH]3)sc2c1    1590
CNCc1cc(Nc2nc3ccc(C(=O)Nc4c(C)cccc4Cl)cc3s2)nc(C)n1    7

# lookup: Tyrosine-protein kinase Lck (Homo sapiens) IC50, key = `Cc1cc(Nc2nc3ccc(C(=O)Nc4c(C)cccc4Cl)cc3s2)nc(C)n1`
20

# lookup: Tyrosine-protein kinase Lck (Homo sapiens) IC50, key = `Cc1ccc(Nc2nc3ccc(C(=O)Nc4c(C)cccc4Cl)cc3s2)nc1`
35

# lookup: Tyrosine-protein kinase Lck (Homo sapiens) IC50, key = `Cc1cccc(Cl)c1NC(=O)c1ccc2nc(Nc3ccnc(NCCO)n3)sc2c1`
3

# lookup: Tyrosine-protein kinase Lck (Homo sapiens) IC50, key = `Cc1cc(C)nc(Nc2nc3ccc(C(=O)Nc4c(C)cccc4Cl)cc3s2)c1`
8

# lookup: Tyrosine-protein kinase Lck (Homo sapiens) IC50, key = `Cc1cc(C)c(NC(=O)c2ccc3nc(Nc4ccccn4)sc3c2)c(C)c1`
138

# lookup: Tyrosine-protein kinase Lck (Homo sapiens) IC50, key = `Cc1cccc(Cl)c1NC(=O)c1ccc2nc(Nc3cccc(CN4CCOCC4)n3)sc2c1`
13

# lookup: Tyrosine-protein kinase Lck (Homo sapiens) IC50, key = `Cc1cccc(Cl)c1NC(=O)c1ccc2nc(Nc3ccncn3)sc2c1`
27

# lookup: Tyrosine-protein kinase Lck (Homo sapiens) IC50, key = `Cc1cccc(Cl)c1NC(=O)c1ccc2nc(Nc3cc(N)ccn3)sc2c1`
403

# lookup: Tyrosine-protein kinase Lck (Homo sapiens) IC50, key = `Cc1nc(CN2CCOCC2)cc(Nc2nc3ccc(C(=O)Nc4c(C)cccc4Cl)cc3s2)n1`
6

# lookup: Tyrosine-protein kinase Lck (Homo sapiens) IC50, key = `Cc1cc(Nc2nc3ccc(C(=O)Nc4c(C)cccc4Cl)cc3s2)ncn1`
21

# lookup: Tyrosine-protein kinase Lck (Homo sapiens) IC50, key = `Cc1cccc(Nc2nc3ccc(C(=O)Nc4c(C)cccc4Cl)cc3s2)n1`
9

# lookup: Tyrosine-protein kinase Lck (Homo sapiens) IC50, key = `CC(=O)NCCNc1cc(Nc2nc3ccc(C(=O)Nc4c(C)cccc4Cl)cc3s2)ncn1`
6

# lookup: Tyrosine-protein kinase Lck (Homo sapiens) IC50, key = `Cc1cccc(Cl)c1NC(=O)c1ccc2nc(Nc3cccc(N)n3)sc2c1`
2

# lookup: Tyrosine-protein kinase Lck (Homo sapiens) IC50, key = `CNc1nccc(Nc2nc3ccc(C(=O)Nc4c(C)cccc4Cl)cc3s2)n1`
20

# lookup: Tyrosine-protein kinase Lck (Homo sapiens) IC50, key = `Cc1cc(Nc2nc3ccc(C(=O)Nc4c(C)cccc4Cl)cc3s2)nc(NCC(C)(C)O)n1`
6

# lookup: Tyrosine-protein kinase Lck (Homo sapiens) IC50, key = `Cc1cccc(Cl)c1NC(=O)c1ccc2nc(Nc3cccc(NCCO)n3)sc2c1`
0.5

# lookup: Tyrosine-protein kinase Lck (Homo sapiens) IC50, key = `Cc1cccc(Cl)c1NC(=O)c1ccc2nc(Nc3cc(N)ncn3)sc2c1`
8

====

target: Tyrosine-protein kinase Lck (Homo sapiens, UniProt P06239); experiment: Inhibition of human p56 Lck tyrosine kinase
pIC50: −log10 of the molar value.
Label class 0 if pIC50 falls below 7; label class 1 in every other case.

Here are 5 molecules together with their reported answers.
Cc1cc(C)c(NC(=O)c2ccc3nc(Nc4ccncc4)sc3c2)c(C)c1    class 0
Cc1cc(C)c(NC(=O)c2ccc3nc(Nc4ncc[nH]4)sc3c2)c(C)c1    class 0
Cc1cc(C)c(NC(=O)c2ccc3nc(Nc4ncccc4C)sc3c2)c(C)c1    class 0
Cc1cc(C)c(NC(=O)c2ccc3nc(NCC4CC4)sc3c2)c(C)c1    class 0
Cc1cc(C)c(NC(=O)c2ccc3nc(Nc4nc[nH]n4)sc3c2)c(C)c1    class 0

Textbook exercise: given the entry `Cc1cc(C)c(NC(=O)c2ccc3nc(Nc4cnc[nH]4)sc3c2)c(C)c1` , state whether its pIC50 is greater than or equal to 7.
class 0
